target: Ferritin light chain (Equus caballus) (UniProt P02791); experiment: qHTS Validation Assay for Identification of Novel General Anesthetics (AID 2323); settings: horse apoferritin, anesthetic-site fluorescent probe displacement; series mostly up to 76.9 µM
Sequence (P02791 2-175 limits assumed): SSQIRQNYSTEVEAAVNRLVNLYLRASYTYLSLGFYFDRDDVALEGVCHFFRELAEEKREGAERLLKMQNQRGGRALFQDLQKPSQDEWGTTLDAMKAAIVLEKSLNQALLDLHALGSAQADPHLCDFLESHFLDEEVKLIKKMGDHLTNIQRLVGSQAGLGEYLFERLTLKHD
Records with an inconclusive call do not appear. Active and inactive are the calls of the source. The call rests on the fitted dose curve; in most records, active means well fitted curve in the direction sought with a large enough effect; inconclusive means small, poorly fitted or top-dose-only effect, or another doubt; inactive means no such curve, though single readings can be large or run the other way.
Parameter measured: outcome

# count of solved cases: 5
| Molecule | outcome |
| --- | --- |
| CCCNC[C@H](O)COc1ccccc1C(=O)CCc1ccccc1 | inactive |
| N=C(N)SCCc1cccc(CCSC(=N)N)c1 | inactive |
| CNC(=O)[C@H]1O[C@@H](n2cnc3c(NCc4ccc(N)cc4)ncnc32)[C@H](O)[C@H]1O | inactive |
| Cc1cn([C@H]2C[C@@H](N=[N+]=[N-])[C@@H](CO)O2)c(=O)[nH]c1=O | inactive |
| CN1CCc2cc(Cl)c(O)cc2C(c2ccccc2)C1 (stereo not drawn) | inactive |

[ask] Entry C[C@]12CCC(=O)C=C1CC[C@@H]1C2[C@@H](O)C[C@@]2(C)[C@H]1CC[C@]2(O)C(=O)CO (stereo partly drawn) has what outcome?
[reply] inactive

[ask] Report outcome for CSc1nc(N)c2ncn([C@@H]3O[C@H](COP(=O)(O)OP(=O)(O)O)[C@H](O)[C@H]3O)c2n1 please.
[reply] inactive

[ask] I have this molecule here, Cc1ccccc1N1CCN(S(=O)(=O)C[C@]23CCC(CC2NC(=O)[C@@H](N)CCS(C)(=O)=O)C3(C)C)CC1 (stereo partly drawn) , and I need its recorded outcome.
[reply] inactive

[ask] Record request: outcome value, item Nc1nc(Nc2ccccc2)nc2c1ncn2[C@@H]1O[C@H](CO)[C@H](O)[C@H]1O
[reply] inactive

[ask] Consider the molecule shown here: CN1C[C@H](C(=O)N[C@]2(C)O[C@@]3(O)C4CCCN4C(=O)[C@H](Cc4ccccc4)N3C2=O)C[C@@H]2c3cccc4[nH]cc(c34)C[C@H]21 (stereo partly drawn) What is its recorded outcome?
[reply] inactive

[ask] State the recorded outcome for this entry: CC(N)=NCCCC(N)C(=O)O (stereo not drawn)
[reply] inactive

[ask] Given the entry CNC(=O)[C@H]1O[C@@H](n2cnc3c(NCc4cccc(I)c4)ncnc32)[C@H](O)[C@H]1O , report its measured outcome.
[reply] inactive

[ask] Look up outcome for this molecule: CN(C)C1C(=O)C(C(N)=O)=C(O)[C@@]2(O)C(=O)C3=C(O)c4c(O)ccc(Cl)c4[C@@H](O)C3C[C@@H]12 (stereo partly drawn)
[reply] inactive

[ask] Form field: reported outcome of CCCC(=O)NCCc1c2n(c3ccc(OC)cc13)Cc1ccccc1-2
[reply] inactive

[ask] What outcome value was documented for this molecule, N=C1Sc2ccccc2C2=NCCCN12 ?
[reply] inactive

[ask] Fill blank: measured outcome of the molecule COC(=O)c1c(-c2cc(OC)c(OC)c(OC)c2)c2ccc(OCc3ccccn3)cc2c(=O)n1-c1ccc(N)cc1 is ____.
[reply] inactive

[ask] # get_value(readout='outcome', item= C[C@H]1CC2[C@@H]3CCC4=CC(=O)C=C[C@]4(C)[C@@]3(Cl)[C@@H](O)C[C@]2(C)[C@@]1(O)C(=O)CO (stereo partly drawn) )
[reply] inactive

[ask] Fill in: outcome of Nc1ncnc2c1nc(Sc1ccc(Cl)cc1)n2[C@H]1O[C@@H]2COP(=O)(O)O[C@H]2[C@@H]1O is ___
[reply] inactive

The measured values listed here are drawn from PubChem BioAssay (NCATS).
